Molecular target: Microtubule-associated protein tau (Homo sapiens) (UniProt P10636)
Sequence (P10636 561-689 P618L limits assumed): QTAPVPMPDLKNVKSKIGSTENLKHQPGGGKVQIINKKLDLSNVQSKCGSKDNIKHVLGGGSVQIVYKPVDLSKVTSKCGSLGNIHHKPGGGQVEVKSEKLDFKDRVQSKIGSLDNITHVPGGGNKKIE
Assay: qHTS for Inhibitors of Tau Fibril Formation, Thioflavin T Binding; also: nearly all actives have a fitted effect of over 55% in size
Settings: recombinant tau K18 P301L, heparin-induced fibrillization, ThT fluorescence; series mostly up to 57.4 µM
About 5,800 (2.1%) of roughly 270,000 compounds were called active. Inconclusive results (about 16%) are left out. Calls follow the shape of the dose curve; as a rule, active = well fitted inhibition curve with a large enough effect; inconclusive = small, poorly fitted or top-dose-only effect; inactive = flat fitted curve, though single readings scatter. The sample as a whole holds a higher share of actives than the screen did.
Outcome codes: 1.0 for active, 0.0 for inactive

| Molecule | Assigned Class |
| --- | --- |
| CCOC(=O)c1c(NC(=O)c2ccc(S(=O)(=O)N3CCCC(C)C3)cc2)sc2c1CCN(C(C)C)C2 (stereo unspecified) | 0.0 |
| CCC(Sc1nc2n[nH]c(C)c2c(=N)n1-c1ccccc1Cl)C(=O)N(CC)CC (stereo unspecified) | 0.0 |
| c1ccc(Nc2n[nH]nc2-c2ccccc2)cc1 | 0.0 |
| Nc1ccc(Nc2ccccc2)cc1 | 1.0 |
| COC(=O)c1ccc2c(c1)N(CC(=O)Nc1ccc(C)c(C)c1)C(=O)c1ccccc1S2 | 0.0 |
| COc1cccc(CNC(=O)C2CCN(S(=O)(=O)c3ccc4c(ccn4C)c3)CC2)c1 | 0.0 |

###

Target: Microtubule-associated protein tau (Homo sapiens) (UniProt P10636)
Experiment: qHTS for Inhibitors of Tau Fibril Formation, Thioflavin T Binding; also: nearly all actives have a fitted effect of over 55% in size
Conditions: recombinant tau K18 P301L, heparin-induced fibrillization, ThT fluorescence; series mostly up to 57.4 µM
Excerpt: NIH Molecular Libraries Probe Production Network [MLPCN] NIH Chemical Genomics Center [NCGC] Assay Provider: Carlo Ballatore, University of Pennsylvania The microtubule-associated protein tau is an abundant protein in the axons of neurons that stabilizes microtubules. With its ability to modulate microtubule dynamics, tau contributes directly or indirectly, to key structural and regulatory cellular functions. […] This assay monitors tau fibrillization by Thioflavin T (ThT) fluorescence. […]
About 5,800 (2.1%) of roughly 270,000 compounds were called active. Another 16% or so got no clear call; they are omitted. Calls follow the shape of the dose curve; as a rule, active = well fitted inhibition curve with a large enough effect; inconclusive = small, poorly fitted or top-dose-only effect; inactive = flat fitted curve, though single readings scatter. This is one part of a sample in which actives are shown more often than they occur.
Possible outcomes: active, inactive

| Molecule | Assigned Class |
| --- | --- |
| O=C(CSCc1cnn(-c2ccccc2)c1-n1cccc1)NCc1ccc(Cl)cc1 | inactive |
| CCOCCCn1c(SCC(=O)Nc2ccc(CC)cc2)nc2ccccc2c1=O | inactive |
| COc1ccc(C)cc1NC(=O)C(=O)NCCc1sc(-c2cccc(C)c2)nc1C | inactive |
| CCOc1ccc(/C(O)=C2\C(=O)C(=O)N(c3ccc(OC)cc3)C2c2ccccc2[N+](=O)[O-])cc1 (stereo not given) | active |
| CC(=O)N1CCCc2cc(S(=O)(=O)Nc3ccc(Cl)cc3F)ccc21 | inactive |

###

Molecular target: Microtubule-associated protein tau (Homo sapiens) (UniProt P10636)
Assay: qHTS for Inhibitors of Tau Fibril Formation, Thioflavin T Binding; also: nearly all actives have a fitted effect of over 55% in size
Conditions: recombinant tau K18 P301L, heparin-induced fibrillization, ThT fluorescence; series mostly up to 57.4 µM
Among all 270,000 compounds or so, about 5,800 (2.1%) were called active. Not shown: some 16% with an inconclusive outcome. The call rests on the fitted dose curve; in most records, active means well fitted inhibition curve with a large enough effect; inconclusive means small, poorly fitted or top-dose-only effect; inactive means flat fitted curve, though single readings scatter. Shown is part of a subset that was picked to be rich in actives.
Outcomes: active, inactive

| Compound | Assigned Class |
| --- | --- |
| Cc1cccc(-n2c(=O)c3c(c4cc(C)ccc4n3C)n(CC(=O)Nc3ccccc3Cl)c2=O)c1 | inactive |
| CCc1ccc(CNC(=O)c2ccc(CS(=O)c3ccc(Br)cc3)o2)cc1 (stereo not given) | inactive |
| COc1cccc(CNC(=O)C(=O)NCC(c2cccs2)S(=O)(=O)c2ccccc2)c1 (stereo not given) | inactive |
| N#Cc1ccccc1Cn1cnc2nc3c(cc2c1=O)CCCC3 | inactive |
| CCOC(=O)c1[nH]c(C)c(CCC(=O)NCc2ccccc2C)c1C | inactive |
| CCOC(=O)c1csc(NC(=O)Nc2cccc(OC)c2)n1 | inactive |
| Cc1noc(/C=C/N(C)C)c1S(=O)(=O)N1CCCC(C(=O)NCc2ccco2)C1 (stereo not given) | active |
| CCC(=O)N1N=C(c2ccc(OC)cc2)CC1c1cn(-c2ccccc2)nc1-c1cccs1 (stereo not given) | inactive |
| CCCOc1ccc(Cn2c(O)cc(=O)[nH]c2=O)cc1 | active |
| Cc1ccc(CCNC(=O)Cn2c(-c3cccs3)cc3cc(F)ccc32)cc1 | inactive |

###

Target: Microtubule-associated protein tau (Homo sapiens)
Test: qHTS for Inhibitors of Tau Fibril Formation, Thioflavin T Binding; also: nearly all actives have a fitted effect of over 55% in size
Conditions: recombinant tau K18 P301L (four-repeat tau fragment), heparin-induced fibrillization, ThT fluorescence; series mostly up to 57.4 µM
Hit rate of the full screen: of about 270,000 compounds, about 5,800 (2.1%) were called active. Roughly 16% stayed inconclusive and do not appear here. Calls follow the shape of the dose curve; as a rule, active = well fitted inhibition curve with a large enough effect; inconclusive = small, poorly fitted or top-dose-only effect; inactive = flat fitted curve, though single readings scatter. Many of the other results were omitted from the sample, so actives are more common in it than they were.
Possible outcomes: 1 (yes) for active, 0 (no) for inactive

| Compound | Assigned Class |
| --- | --- |
| CCC1=Nc2cc(C(=O)NCCCOC(C)C)ccc2Sc2ccc(C)cc21 | 0 (no) |
| Cc1ccc(-n2ncc(C(=O)N(C)Cc3ccccc3)c2-n2cccc2)cc1 | 0 (no) |
| COC(=O)c1cc(NC(=O)c2cnc(SC)nc2-c2ccccc2)cc(C(=O)OC)c1 | 0 (no) |
| COc1cccc(NC(=O)c2ccc3c(SCC(=O)O)c4c(nc3c2)CCCC4)c1 | 0 (no) |
| CCOc1ccc(-n2nc3ccc(NC(=O)c4ccc(OC)c(Cl)c4)cc3n2)cc1 | 0 (no) |
| Cc1ccc(C(=O)N2CCc3cc(CNC(=O)c4ccc(Br)cc4)ccc32)cc1 | 0 (no) |
| CCOC(=O)c1ccc(N2C(=O)c3n[nH]c(-c4ccco4)c3C2c2ccc(O)cc2)cc1 (stereo not given) | 0 (no) |
| COc1ccc(NC(=O)CSc2nccn2C2CCCC2)cc1OC | 0 (no) |
| COc1cc(OC)c(NC(=O)Cc2ccc(-n3c(C)nc4cccnc43)cc2)cc1Cl | 0 (no) |
| Cc1c2cnn(-c3ccccc3)c(=O)c2c(C)n1C(C)C(=O)Nc1ccc(Br)cc1F (stereo not given) | 0 (no) |
| Cc1ccc(Nc2c3c(nc4ccccc24)CCC3)cc1 | 0 (no) |
| COc1ccc(CNC(=O)c2cc3c(s2)-c2ccccc2OC3)cc1 | 0 (no) |
| CCC(=O)Nc1ccccc1-c1nc2ccccc2n(CC(=O)Nc2ccc(C)c(C)c2)c1=O | 0 (no) |
| CCc1nn(CCCC(=O)NCc2ccc(C)cc2)c(=O)c2cc3occc3n12 | 0 (no) |
| Cc1ccc2nc(COc3cccc(NC(=O)c4cccc(Cl)c4)c3)cc(=O)n2c1 | 0 (no) |
| Cc1ccc(-n2ncc3c(N4CCC(C(N)=O)CC4)ncnc32)cc1 | 0 (no) |
| Oc1c(C=Nc2cccc3nsnc23)ccc2ccccc12 | 1 (yes) |
| COc1ccc(NC(=O)N2CCCn3nc(C)cc32)cc1OC | 0 (no) |
| Cc1[nH][nH]c(=O)c1C(c1ccc2c(c1)OCO2)c1c(C)[nH][nH]c1=O | 0 (no) |
| COc1ccccc1-c1noc(-c2ccc(NCc3ccccc3)c([N+](=O)[O-])c2)n1 | 0 (no) |
| CC(=O)Oc1c2c(c3c(c1CC=C(C)C)O[C@@]14C(=CC5CC1C(C)(C)OC4(C/C=C(\C)C(=O)O)C5=O)C3=O)OC(C)(CCC=C(C)C)C=C2 (stereo not given in full) | 1 (yes) |
| O=C(COc1ccccc1F)Nc1ccc(C(=O)OCc2cc(=O)n3nc(C4CC4)sc3n2)cc1 | 0 (no) |
| Cc1c(CCNC(=O)c2ccc(C(F)(F)F)cc2)sc2nc(-c3ccc(F)cc3)nn12 | 0 (no) |
| COc1ccc(OC)c(-c2nc(C(N)=O)c3c(n2)n(-c2ccc4c(c2)OCO4)c(=O)n3C)c1 | 0 (no) |
| COc1ccccc1Cc1nc2ccccc2nc1SCC(=O)N1CCCc2ccccc21 | 0 (no) |
| CCCCNC(=O)CSc1nc2cc3c(cc2c(=O)n1CCCCCC(=O)NCc1ccc2c(c1)OCO2)OCO3 | 0 (no) |
| O=C(C1CCC(Cn2c(=O)c3sccc3n(Cc3ccccc3F)c2=O)CC1)N1CCCCC1 (stereo not given) | 0 (no) |
| O=C(Nn1c(-c2ccccc2)nc2ccccc2c1=O)c1ccc([N+](=O)[O-])cc1 | 0 (no) |
| Cc1ccc(C)c(S(=O)(=O)n2nc(C)c(S(=O)(=O)N3CCC(C)CC3)c2C)c1 | 0 (no) |
| CC(C)(C)c1ccc(S(=O)(=O)Nc2ccc(O)c(Sc3nc4ccccc4s3)c2)cc1 | 0 (no) |
| COc1cccc(-n2c(=O)c3c(C)c(C(=O)N(C)C)sc3n(Cc3cccc(C)c3)c2=O)c1 | 0 (no) |
| O=[N+]([O-])c1c(NCCO)cc(Sc2nc3ccccc3s2)c2nonc12 | 1 (yes) |
| COc1ccc(NS(=O)(=O)c2cc(NC(=O)/C=C/c3cc(OC)c(OC)c(OC)c3)ccc2N2CCCCC2)cc1 | 0 (no) |
| Cn1ccc2cc(S(=O)(=O)N3CCCC(C(=O)NCc4ccccc4F)C3)ccc21 (stereo not given) | 0 (no) |
| CC(=O)c1cc2c(cc1N)OCO2 | 0 (no) |
| CNC(=O)c1ccc(-c2nc(CN3CCc4ccccc43)c(C)o2)cc1 | 0 (no) |
| O=[N+]([O-])c1cccc(Nc2c3ccccc3nc3ccccc23)c1 | 0 (no) |
| CCOc1ccc(C(=O)Nc2ccc3nc4c(c(Nc5ccccc5OC)c3c2)CCCC4)cc1 | 1 (yes) |
| O=C(Nc1ccc(N2CCOCC2)cc1)c1ccc(-c2ccccc2[N+](=O)[O-])o1 | 1 (yes) |
| CCOC(=O)c1c(C)oc2nc(C)nc(N(CC(C)C)CC(C)C)c12 | 0 (no) |

Values from PubChem BioAssay AID1460
